observedProperty: IC50 (nM)
Hi! Could you send only the number? It should be in nM, unit omitted.

O=C(O)c1nc(CO)nc2c1CCC(=O)N2Cc1ccc(-c2ccccc2-c2nn[nH]n2)cc1 on UniProtKB P30556 gives IC50 = 44

Cc1nc(C)c2c(O)cc(=O)n(Cc3ccc(-c4ccccc4-c4nnn[nH]4)cc3)c2n1 [ENOLTASOSARTAN] on UniProtKB P30556 gives IC50 = 0.17

Cc1nc(C)c2c(n1)N(Cc1ccc(-c3ccccc3-c3nnn[nH]3)cc1)C(=O)CC2 [TASOSARTAN] on UniProtKB P30556 gives IC50 = 32
